test system: Mye-BP RUNX1 p.R162K; experiment: drug sensitivity score (DSS) (DSS score); higher = more sensitive (stronger growth inhibition); extreme values may be limits of the assay
Overview of recorded drug sensitivity score for various compounds

Compound: C[C@@]1(C(=O)Nc2ccc(F)nc2)CCCN1c1nc(Nc2cc(C3CC3)n[nH]2)c2cccn2n1
drug sensitivity score: 14.5

Compound: O=C1CCC(N2C(=O)c3ccccc3C2=O)C(=O)N1 (centres undefined) [Thalidomide]
drug sensitivity score: 1.02

Compound: CC[C@]1(O)C[C@@H]2CN(CCc3c([nH]c4ccccc34)[C@@](C(=O)OC)(c3cc4c(cc3OC)N(C)[C@H]3[C@@](O)(C(=O)OC)[C@H](OC(C)=O)[C@]5(CC)C=CCN6CC[C@]43[C@@H]65)C2)C1
drug sensitivity score: 15.7

Compound: CC(=O)Nc1cccc(-n2c(=O)n(C3CC3)c(=O)c3c(Nc4ccc(I)cc4F)n(C)c(=O)c(C)c32)c1
drug sensitivity score: 18.5

Compound: O=P1(NCCCl)OCCCN1CCCl (centres undefined) [Ifosfamide]
drug sensitivity score: 0

Compound: Cn1nnc2c(C(N)=O)ncn2c1=O [Temozolomide]
drug sensitivity score: 2.42

Compound: CCNC(=O)CCC/C=C\C[C@@H]1[C@@H](/C=C/[C@@H](O)CCc2ccccc2)[C@H](O)C[C@@H]1O
drug sensitivity score: 0

Compound: CCN(CC)CCNC(=O)c1c(C)[nH]c(/C=C2\C(=O)Nc3ccc(F)cc32)c1C
drug sensitivity score: 4.99

Compound: O=C(c1cc(Cc2n[nH]c(=O)c3ccccc23)ccc1F)N1CCN(C(=O)C2CC2)CC1
drug sensitivity score: 4.88

---

Overview of recorded drug sensitivity score for various compounds
system: Ba/F3 P210-BCR-ABL1 RUNX1wt/wt control (mouse); assay: drug sensitivity score (DSS) (DSS score); higher = more sensitive (stronger growth inhibition); extreme values may be limits of the assay

Compound: Oc1ncnc2[nH]ncc12 [Allopurinol]
drug sensitivity score: 0
--
Compound: CN(C)C1CCN(C(=O)c2ccc(NC(=O)Nc3ccc(-c4nc(N5CCOCC5)nc(N5CCOCC5)n4)cc3)cc2)CC1 [Gedatolisib]
drug sensitivity score: 4.55
--
Compound: CNS(=O)(=O)Nc1nccc(Cc2c(C)c3ccc(Oc4ncccn4)cc3oc2=O)c1F
drug sensitivity score: 0
--
Compound: COCCNCc1ccc(-c2cc3nccc(Oc4ccc(NC(=S)NC(=O)Cc5ccc(F)cc5)cc4F)c3s2)nc1 [Glesatinib]
drug sensitivity score: 0

---

test system: Ly-BP RUNX1 p.R204Q; experiment: drug sensitivity score (DSS) (DSS score); higher = more sensitive (stronger growth inhibition); extreme values may be limits of the assay
The label depends only on drug sensitivity score: fulfilled if it is at least 2, not fulfilled if it is smaller.

Molecule: Cc1c2oc3c(C)ccc(C(=O)N[C@@H]4C(=O)N[C@H](C(C)C)C(=O)N5CCC[C@H]5C(=O)N(C)CC(=O)N(C)[C@@H](C(C)C)C(=O)O[C@@H]4C)c3nc-2c(C(=O)N[C@@H]2C(=O)N[C@H](C(C)C)C(=O)N3CCC[C@H]3C(=O)N(C)CC(=O)N(C)[C@@H](C(C)C)C(=O)O[C@@H]2C)c(N)c1=O [Dactinomycin]
Label: fulfilled
--
Molecule: CN(C)c1nc(N(C)C)nc(N(C)C)n1 [Altretamine]
Label: not fulfilled
--
Molecule: O=C(Nc1c[nH]nc1-c1nc2ccc(CN3CCOCC3)cc2[nH]1)NC1CC1 [AT9283]
Label: not fulfilled
--
Molecule: CCCCC(=O)OCC(=O)[C@]1(O)Cc2c(O)c3c(c(O)c2[C@@H](O[C@H]2C[C@H](NC(=O)C(F)(F)F)[C@H](O)[C@H](C)O2)C1)C(=O)c1c(OC)cccc1C3=O [Valrubicin]
Label: fulfilled
--
Molecule: CO[C@H]1C[C@@H]2CC[C@@H](C)[C@@](O)(O2)C(=O)C(=O)N2CCCC[C@H]2C(=O)O[C@H]([C@H](C)C[C@@H]2CC[C@@H](OC(=O)C(C)(CO)CO)[C@H](OC)C2)CC(=O)[C@H](C)/C=C(\C)[C@@H](O)[C@@H](OC)C(=O)[C@H](C)C[C@H](C)/C=C/C=C/C=C/1C [Temsirolimus]
Label: fulfilled
--
Molecule: CNNCc1ccc(C(=O)NC(C)C)cc1 [Procarbazine]
Label: not fulfilled
--
Molecule: Oc1nc(-c2ccc(C(F)(F)F)cc2)nc2c1CSCC2 [XAV-939]
Label: not fulfilled
--
Molecule: O=C(O)CCCc1ccc(N(CCCl)CCCl)cc1 [Chlorambucil]
Label: not fulfilled
--
Molecule: CC1(C)CCC(c2ccc(Cl)cc2)=C(CN2CCN(c3ccc(C(=O)NS(=O)(=O)c4ccc(N[C@H](CCN5CCOCC5)CSc5ccccc5)c(S(=O)(=O)C(F)(F)F)c4)cc3)CC2)C1 [Navitoclax]
Label: fulfilled
--
Molecule: C=CC[C@@H]1/C=C(\C)C[C@H](C)C[C@H](OC)[C@H]2O[C@@](O)(C(=O)C(=O)N3CCCC[C@H]3C(=O)O[C@H](/C(C)=C/[C@@H]3CC[C@@H](O)[C@H](OC)C3)[C@H](C)[C@@H](O)CC1=O)[C@H](C)C[C@@H]2OC [Tacrolimus]
Label: not fulfilled
--
Molecule: COc1cc([C@@H]2c3cc4c(cc3[C@@H](O[C@@H]3O[C@@H]5CO[C@@H](c6cccs6)O[C@H]5[C@H](O)[C@H]3O)[C@H]3COC(=O)[C@H]23)OCO4)cc(OC)c1O [Teniposide]
Label: fulfilled
